# TARGET DESC: AHR (Homo sapiens)
# MEASUREMENT DESCRIPTION: In vitro assay 1: antagonism in human cell line (transactivation assay, U87 cells prestimulated with kynurenic acid, DRE firefly luciferase reporter)
# Format: cell-based
# Parameters: host or cells: U87 glioblastoma cells, stably transfected with DRE firefly luciferase and renilla reporter constructs
# RUN PARAMETERS: 150 uM kynurenic acid, 20 hours, read-out: Assay 1: AHR-luc Hum Antagonism IC50
Would you mind telling me the reported pIC50 of each entry?
Please treat pIC50 as minus the base-10 logarithm of the molar concentration.

Prompt: Notebook: pull reported pIC50 for AHR (Homo sapiens), entry Cn1cc(-n2nc(-c3ccc(OC(F)(F)F)cc3)cc(C(=O)N[C@@H]3COC[C@@H]3O)c2=O)cn1 (single isomer, unassigned; enantiomer 2) [Example 57]
Completion: 8.13

Prompt: Here is the next compound: O=C(NC(CO)CO)c1cc(-c2ccc(Cl)cc2)nn(-c2cccnc2)c1=O
Completion: 6.80

Prompt: And what about the compound CC(NC(=O)c1cc(-c2ccc(Cl)cc2)nn(-c2cccnc2)c1=O)C(O)C(F)(F)F (single isomer, unassigned) [Example 298] ?
Completion: 8.43

Prompt: Next up: O=C(N[C@H]1CCC[C@@H]1O)c1cc(-c2ccc(C(F)F)cc2)nn(-c2cccnc2)c1=O
Completion: 8.04

Prompt: Here is the next compound: O=C(N[C@@H]1CCC[C@@H]1O)c1cc(-c2ccc(C(F)(F)F)cc2)nn(-c2cccnc2)c1=O
Completion: 7.88

Prompt: How about this compound: O=C(N[C@H]1CCCC(F)(F)[C@@H]1O)c1cc(-c2ccc(OC(F)(F)F)cc2)nn(-c2cccnc2)c1=O (relative stereo) [Example 140]
Completion: 8.02

Prompt: Also, C[C@H](NC(=O)c1cc(-c2ccc(C(F)(F)F)cc2)nn(-c2cnn(C)c2)c1=O)C(C)(C)O please.
Completion: 8.97

----------
# TARGET DESC: AHR (Homo sapiens, UniProt P35869)
# Sequence (P35869 11-848): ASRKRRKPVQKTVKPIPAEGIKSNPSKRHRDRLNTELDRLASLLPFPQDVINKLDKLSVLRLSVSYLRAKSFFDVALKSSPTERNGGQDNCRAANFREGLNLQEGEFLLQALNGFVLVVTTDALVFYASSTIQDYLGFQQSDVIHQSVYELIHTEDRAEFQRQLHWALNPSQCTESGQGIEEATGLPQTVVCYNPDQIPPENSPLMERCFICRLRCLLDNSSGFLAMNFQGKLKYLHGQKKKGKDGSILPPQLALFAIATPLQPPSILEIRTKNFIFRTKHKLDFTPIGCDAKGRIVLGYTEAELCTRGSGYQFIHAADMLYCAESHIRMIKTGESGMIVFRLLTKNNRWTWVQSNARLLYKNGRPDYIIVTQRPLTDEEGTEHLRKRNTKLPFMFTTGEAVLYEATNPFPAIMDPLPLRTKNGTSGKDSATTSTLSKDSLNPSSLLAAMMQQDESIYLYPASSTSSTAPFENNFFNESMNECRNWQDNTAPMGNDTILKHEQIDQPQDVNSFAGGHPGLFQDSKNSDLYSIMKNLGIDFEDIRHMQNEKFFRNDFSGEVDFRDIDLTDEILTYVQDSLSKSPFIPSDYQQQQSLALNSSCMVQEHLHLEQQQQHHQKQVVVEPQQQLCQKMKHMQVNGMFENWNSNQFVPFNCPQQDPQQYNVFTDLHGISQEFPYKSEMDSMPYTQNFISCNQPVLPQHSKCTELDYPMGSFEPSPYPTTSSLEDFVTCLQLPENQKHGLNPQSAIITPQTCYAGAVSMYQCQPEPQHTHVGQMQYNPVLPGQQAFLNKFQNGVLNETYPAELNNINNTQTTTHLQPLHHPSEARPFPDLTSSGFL
# MEASUREMENT DESCRIPTION: In vitro assay 1: antagonism in human cell line (transactivation assay, U87 cells prestimulated with kynurenic acid, DRE firefly luciferase reporter)
# Type: cell-based
# Set-up: host or cells: U87 glioblastoma cells, stably transfected with DRE firefly luciferase and renilla reporter constructs
# RUN PARAMETERS: 150 uM kynurenic acid, 20 hours, read-out: Assay 1: AHR-luc Hum Antagonism IC50
# Protocol: Transactivation Assay in Human Cell Line (In Vitro Assays 1 and 2) Transactivation assays were carried out in U87 glioblastoma cells (ATCC) endogenously expressing AHR. In addition the cells were stably transfected with an AHR inducible firefly luciferase reporter gene construct that carried AHR-binding sites (DRE) in its promoter and a renilla reporter gene construct with constitutively active promoter. […]
pIC50: −log10 of the molar value.
Decision: pIC50 >= 8 yields true (1), all other cases yield false (0).

Prompt: Decide: pIC50 of O=C(N[C@H]1COC[C@H]1O)c1cc(-c2ccc(OC(F)(F)F)cc2)nn(-c2cccnc2)c1=O (single isomer, unassigned; enantiomer 2) [Example 159] >= 8?
Completion: false (0)

Prompt: Now give it for Cn1cc(-n2nc(-c3ccc(OC(F)F)cc3)cc(C(=O)NC(C(C)(C)O)C(F)(F)F)c2=O)cn1 (centres unmarked) [Example 305] too.
Completion: true (1)

Prompt: Same for O=C(N[C@H](CO)C(F)(F)F)c1cc(-c2ccc(Cl)cc2)nn(-c2cnsc2)c1=O [Example 198]
Completion: true (1)

Prompt: // same read-out, input: CC(C)(O)CNC(=O)c1cc(-c2ccc(C(F)(F)F)cc2)nn(-c2cnn(C(F)F)c2)c1=O [Example 262]
Completion: false (0)

Prompt: Same lookup for O=C(NCC1(O)CC1)c1cc(-c2ccc(Cl)cc2)nn(-c2cccnc2)c1=O [Example 263] , please.
Completion: false (0)

Prompt: Also O=C(NC[C@@H](O)CO)c1cc(-c2ccc(C(F)(F)F)cc2)nn(-c2cccnc2)c1=O [Example 113] , if possible.
Completion: false (0)

Prompt: What about this compound? Cn1cc(-n2nc(-c3ccc(C(F)(F)F)cc3)cc(C(=O)N[C@@H]3COC[C@@H]3O)c2=O)cn1 (single isomer, unassigned) [Example 218]
Completion: true (1)

Prompt: Item: COCC(O)CNC(=O)c1cc(-c2ccc(Cl)cc2)nn(-c2cnn(C)c2)c1=O (single isomer, unassigned; (+)) [Example 26]
Completion: false (0)

Prompt: Try this compound too: CC(C)(O)CNC(=O)c1cc(-c2ccc(CF)cc2)nn(-c2cccnc2)c1=O [Example 286]
Completion: false (0)

Prompt: Here is the next compound: C[C@H](NC(=O)c1cc(-c2ccc(C(F)(F)F)cc2)nn(-c2cn[nH]c2)c1=O)C(C)(C)O [Example 260]
Completion: false (0)

Prompt: Another compound to check: C[C@@H](CO)NC(=O)c1cc(-c2ccc(C(F)F)cc2)nn(-c2cccnc2)c1=O [Example 151]
Completion: false (0)

----------
# TARGET DESC: AHR (Homo sapiens)
# MEASUREMENT DESCRIPTION: In vitro assay 1: antagonism in human cell line (transactivation assay, U87 cells prestimulated with kynurenic acid, DRE firefly luciferase reporter)
# Type: cell-based
# Set-up: host or cells: U87 glioblastoma cells, stably transfected with DRE firefly luciferase and renilla reporter constructs
# RUN PARAMETERS: 150 uM kynurenic acid, 20 hours, read-out: Assay 1: AHR-luc Hum Antagonism IC50
MEASURE NAME: pIC50
Reminder that pIC50 is minus the log10 of a molar concentration.

Prompt: So what's the measured pIC50 for this one? O=C(N[C@@H]1CC[C@@H]1O)c1cc(-c2ccc(Cl)cc2)nn(-c2cccnc2)c1=O (relative stereo) [Example 258]
Completion: 7.56

Prompt: Further, for C[C@@H](NC(=O)c1cc(-c2ccc(OC(F)(F)F)cc2)nn(-c2cccnc2)c1=O)C(C)(C)O ?
Completion: 7.30

Prompt: For O=C(NCC1(O)CCC1)c1cc(-c2ccc(C(F)(F)F)cc2)nn(-c2cccnc2)c1=O then?
Completion: 8.52

Prompt: Thanks! And C[C@@H](NC(=O)c1cc(-c2ccc(C(F)(F)F)cc2)nn(-c2cccnc2)c1=O)C(C)(C)O ?
Completion: 8.07

Prompt: Same thing, different compound: CC(C)(O)C(NC(=O)c1cc(-c2ccc(Cl)cc2)nn(-c2cncnc2)c1=O)C(F)(F)F (single isomer, unassigned) [Example 187]
Completion: 7.47

Prompt: Now the same for Cc1ccc(-c2cc(C(=O)NCC(O)C(F)F)c(=O)n(-c3cnn(C)c3)n2)cc1 (single isomer, unassigned; enantiomer 2) [Example 15]
Completion: 7.58

Prompt: Follow-up entry: C[C@@H](CO)NC(=O)c1cc(-c2ccc(Cl)cc2)nn(-c2ccnnc2)c1=O
Completion: 6.33

----------
# TARGET DESC: AHR (Homo sapiens)
# MEASUREMENT DESCRIPTION: In vitro assay 2: agonism in human cell line (transactivation assay, U87 cells, DRE firefly luciferase reporter)
# Assay type: cell-based
# Design: host or cells: U87 glioblastoma cells, stably transfected with DRE firefly luciferase and renilla reporter constructs
# RUN PARAMETERS: no kynurenic acid, 20 hours, read-out: Assay 2: AHR-luc Hum Agonism IC50
MEASURE NAME: IC50

Prompt: What is its IC50 for AHR (Homo sapiens)? Entry: Cc1ccc(-c2cc(C(=O)NCC(O)C(F)(F)F)c(=O)n(-c3cnn(C)c3)n2)cc1 (stereo not shown) [Example 10]
Completion: > 20 µM

Prompt: Likewise for C[C@@H](CO)NC(=O)c1cc(-c2ccc(Cl)cc2F)nn(-c2cccnc2)c1=O ?
Completion: > 20 µM

Prompt: Input C[C@@H](CO)NC(=O)c1cc(-c2ccc(C(F)(F)F)nc2)nn(-c2cnsc2)c1=O
Completion: > 20 µM

Prompt: What about this compound? O=C(N[C@H](CO)C(F)(F)F)c1cc(-c2ccc(Cl)cc2)nn(-c2cncc(F)c2)c1=O
Completion: > 20 µM

----------
# TARGET DESC: AHR (Homo sapiens, UniProt P35869)
# MEASUREMENT DESCRIPTION: In vitro assay 1: antagonism in human cell line (transactivation assay, U87 cells prestimulated with kynurenic acid, DRE firefly luciferase reporter)
# Type: cell-based
# Parameters: host or cells: U87 glioblastoma cells, stably transfected with DRE firefly luciferase and renilla reporter constructs
# RUN PARAMETERS: 150 uM kynurenic acid, 20 hours, read-out: Assay 1: AHR-luc Hum Antagonism IC50
MEASURE NAME: pIC50
// pIC50 here means minus log10 of the molar concentration (mol/L)

Prompt: Entry O=C(NC(CO)CO)c1cc(-c2ccc(Cl)cc2)nn(-c2cncc(F)c2)c1=O [Example 84] has what pIC50?
Completion: 6.79

Prompt: Now consider O=C(N[C@@H]1CCC[C@H]1O)c1cc(-c2ccc(C(F)(F)F)cc2)nn(-c2cccnc2)c1=O [Example 104] and answer again.
Completion: 7.69

Prompt: # iterate: C[C@@H](CO)NC(=O)c1cc(-c2ccc(C(F)(F)F)nc2)nn(-c2cnsc2)c1=O [Example 251]
Completion: 7.75

Prompt: Now give it for CC(C)(O)CNC(=O)c1cc(-c2ccc(Cl)cc2)nn(-c2cnsc2)c1=O [Example 222] too.
Completion: 8.37

Prompt: Then this compound: O=C(N[C@@H]1CC[C@@H]1O)c1cc(-c2ccc(C(F)(F)F)cc2)nn(-c2cccnc2)c1=O (single isomer, unassigned) [Example 217]
Completion: 8.61

Prompt: Request: Cn1cc(-n2nc(-c3ccc(C(F)(F)F)cc3)cc(C(=O)N[C@H]3CCC[C@@H]3O)c2=O)cn1 [Example 210]
Completion: 8.84

Prompt: And the next one, CC(C)(O)CNC(=O)c1cc(-c2ccc(OC(F)F)cc2)nn(-c2cccnc2)c1=O [Example 331] ?
Completion: 6.63
